Below are molecules with their log10 Ki as measured on UniProt Q07820.
Sequence (Q07820 whole entry): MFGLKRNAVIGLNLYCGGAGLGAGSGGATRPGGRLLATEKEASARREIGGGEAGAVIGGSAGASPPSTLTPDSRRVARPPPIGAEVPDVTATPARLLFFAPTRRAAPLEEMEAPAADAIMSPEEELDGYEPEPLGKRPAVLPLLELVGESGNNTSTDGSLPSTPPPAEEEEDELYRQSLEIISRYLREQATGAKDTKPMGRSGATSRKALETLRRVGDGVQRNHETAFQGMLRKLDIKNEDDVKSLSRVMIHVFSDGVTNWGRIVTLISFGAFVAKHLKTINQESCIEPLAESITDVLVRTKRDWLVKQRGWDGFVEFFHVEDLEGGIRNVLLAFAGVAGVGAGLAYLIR
Log10 applied to Ki; unit prior to transform: pM.

In the examples that follow, each entry is paired with its recorded log10 Ki.
[[record]]
molecule = "CO[C@H]1/C(F)=C/C[C@H](C)[C@@H](C)S(=O)(=O)NC(=O)c2ccc3c(c2)N(C[C@@H]2CCO[C@H]21)C[C@@]1(CCCc2cc(Cl)ccc21)CO3"
readout_label = "log10 Ki"
val = 2.34

[[record]]
molecule = "C[C@@H]1[C@@H](C)C/C=C(\\F)C(O)(CC(=O)N(C)C)[C@@H]2OCC[C@H]2CN2C[C@@]3(CCCc4cc(Cl)ccc43)COc3ccc(cc32)C(=O)NS1(=O)=O (single isomer, unassigned) [Compound 22]"
readout_label = "log10 Ki"
val = 2.99

[[record]]
molecule = "COC1/C(F)=C/C[C@H](C)[C@@H](C)S(=O)(=O)NC(=O)c2cnc3c(n2)N(C[C@@H]2CCO[C@@H]12)C[C@@]1(CCCc2cc(Cl)ccc21)CO3 (single isomer, unassigned) [Compound 12]"
readout_label = "log10 Ki"
val = 3.72


UniProt Q07820 log10 Ki of C[C@@H]1[C@@H](C)C/C=C(\F)C(OCCN2CCOCC2)[C@@H]2OCC[C@H]2CN2C[C@@]3(CCCc4cc(Cl)ccc43)COc3ccc(cc32)C(=O)NS1(=O)=O (single isomer, unassigned) [Compound 5] is 2.65

UniProt Q07820 log10 Ki of COc1nn(C)cc1C(=O)NS1(=O)=NC(=O)c2ccc3c(c2)N(C[C@@H]2CCO[C@H]2C(OC)/C(F)=C/C[C@H](C)C1)C[C@@]1(CCCc2cc(Cl)ccc21)CO3 (single isomer, unassigned) [Compound 25] is 1.40
